Quick reference: IC50 of the listed items.
# tested target: Sodium-dependent noradrenaline transporter (Homo sapiens, UniProt P23975)
# Sequence (P23975 whole entry): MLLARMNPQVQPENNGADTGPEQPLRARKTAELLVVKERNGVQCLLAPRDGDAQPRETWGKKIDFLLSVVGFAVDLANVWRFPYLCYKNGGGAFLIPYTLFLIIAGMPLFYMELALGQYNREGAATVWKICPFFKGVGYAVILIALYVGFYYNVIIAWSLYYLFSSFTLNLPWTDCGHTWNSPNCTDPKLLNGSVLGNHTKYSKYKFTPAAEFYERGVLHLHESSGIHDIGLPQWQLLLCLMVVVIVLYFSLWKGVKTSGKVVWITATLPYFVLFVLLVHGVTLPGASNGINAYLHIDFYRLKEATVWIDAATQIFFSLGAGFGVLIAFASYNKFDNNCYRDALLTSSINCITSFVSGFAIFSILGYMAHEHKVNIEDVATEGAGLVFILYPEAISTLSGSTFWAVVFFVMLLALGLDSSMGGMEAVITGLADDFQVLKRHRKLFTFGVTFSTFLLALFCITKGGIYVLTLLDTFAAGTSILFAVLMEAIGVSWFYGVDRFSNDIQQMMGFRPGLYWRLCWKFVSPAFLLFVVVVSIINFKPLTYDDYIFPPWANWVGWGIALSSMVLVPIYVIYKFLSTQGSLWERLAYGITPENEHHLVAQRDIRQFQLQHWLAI
# assay protocol: Inhibition of NET (unknown origin) expressed in Jump In T-REx HEK293 cells assessed as decrease in norepinephrine-induced cellular response preincubated for 1 hr followed by norepinephrine stimulation measured for 30 mins by TRACT assay

{"columns": ["compound", "IC50 [nM]"],
 "data": [
  ["COCCCCNC1CCCC1c1ccc(Cl)c(Cl)c1 (configuration not stated)", 100],
  ["OCCNC1CCCC1c1ccc(Cl)c(Cl)c1 (configuration not stated)", 79.4],
  ["Clc1ccc(C2CCCC2NCc2ccccc2)cc1Cl (configuration not stated)", 631],
  ["CNCCCCNC1CCCC1c1ccc(Cl)c(Cl)c1 (configuration not stated)", 316],
  ["CCCCNC1CCCC1c1ccc(Cl)c(Cl)c1 (configuration not stated)", 251],
  ["COC(=O)CCCNC1CCCC1c1ccc(Cl)c(Cl)c1 (configuration not stated)", 158],
  ["OCCCCNC1CCCCC1c1ccc(Cl)c(Cl)c1 (configuration not stated)", 501]
]}
